Every entry's value here was drawn from patent US7763641B2.

Tested on: HIV strain A
Assay: Cellular anti-HIV assay, clinically isolated mutant strain A
Format: cell-based
Conditions: FR=EC50 (mutant strain)/EC50 (HIV-1 strain LAI)
Grouping by measured A (FR value towards mutant A) is done with the following cut points: low bin = under 10, mid bin = from 10 up to 40, high bin = 40 and over

| molecule | assignedCategory |
| --- | --- |
| CC(C)CN(CC(O)C(Cc1ccccc1)NC(=O)OC1COC2OCCC12)S(=O)(=O)c1ccc(-c2csc(N)n2)cc1 (stereo not drawn) | mid bin |
| CC(C)CN(CC(O)C(Cc1ccccc1)NC(=O)OC1COC2OCCC12)S(=O)(=O)c1ccc(-c2coc(-c3ccc([N+](=O)[O-])cc3)n2)cc1 (stereo not drawn) | high bin |
| CC(C)CN(CC(O)C(Cc1ccccc1)NC(=O)OC1COC2OCCC12)S(=O)(=O)c1ccc(-c2csc(NCCCN(C)C)n2)cc1 (stereo not drawn) | low bin |
| CC(C)CN(C[C@@H](O)[C@H](Cc1ccccc1)NC(=O)O[C@H]1CO[C@H]2OCC[C@H]21)S(=O)(=O)c1ccc(-c2noc(-c3ccco3)n2)cc1 | mid bin |
| CC(=O)Nc1nc(-c2ccc(S(=O)(=O)N(CC(C)C)CC(O)C(Cc3ccccc3)NC(=O)OC3COC4OCCC34)cc2)c[nH]1 (stereo not drawn) | low bin |
| CC(C)CN(CC(O)C(Cc1ccccc1)NC(=O)OC1COC2OCCC12)S(=O)(=O)c1ccc(-c2csc(Nc3ccncc3)n2)cc1 (stereo not drawn) | mid bin |
| Cc1nc(-c2ccc(S(=O)(=O)N(CC(C)C)CC(O)C(Cc3ccccc3)NC(=O)OC3COC4OCCC34)cc2)co1 (stereo not drawn) | mid bin |
| CC(C)CN(CC(O)C(Cc1ccccc1)NC(=O)OC1COC2OCCC12)S(=O)(=O)c1ccc(-c2c[nH]c(NC(=O)OC3COC4OCCC34)n2)cc1 (stereo not drawn) | low bin |
| CC(=O)OC(c1ccccc1)c1nc(-c2ccc(S(=O)(=O)N(CC(C)C)CC(O)C(Cc3ccccc3)NC(=O)OC3COC4OCCC34)cc2)co1 (stereo not drawn) | high bin |
| CC(C)CN(CC(O)C(Cc1ccccc1)NC(=O)OC1COC2OCCC12)S(=O)(=O)c1ccc(-c2coc(COCc3ccccc3)n2)cc1 (stereo not drawn) | mid bin |
